- System Name: T1, AMHR-II/Fc fusion protein (human, UniProt Q16671 18-149, limits assumed)
- T1 construct: also called AMHR-II recombinant receptor expressed in the form of fusion protein with a region Fc; recombinant target; not shown: Fc region
- T1 sequence (Q16671 18-149 limits assumed): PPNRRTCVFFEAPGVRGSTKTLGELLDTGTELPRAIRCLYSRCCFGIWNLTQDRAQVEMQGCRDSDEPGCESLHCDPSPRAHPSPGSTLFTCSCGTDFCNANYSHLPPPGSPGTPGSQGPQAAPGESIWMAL
- Protocol: SPR, BIAcore X100; AMHR-II/Fc immobilised on CM5 chip, antibody injected; 25 C
- Description: The affinity of the antibodies for their antigen, AMHR-II, is determined by the SPR (Surface Plasmon Resonance) technique on BIACore X100 (BIACore, GE Healthcare). […] All the measurements are carried out at 25° C. The antibodies to be analysed are diluted in HBS-EP running buffer (BIACore, GE Healthcare) at concentrations from 6.25 to 3333 nM and injected on the sensor chip for 2 min at a flow of 30 μl/min. […]
kon overview
Expressed in M⁻¹ s⁻¹, but write only the number.

Some binders with recorded kon:
Binder	Measured Value
mutated humanized 12G4 antibody 6B-78 produced in CHO (antibody, human IgG1, kappa, V domains shown, also called 6B_78 CHO) VH: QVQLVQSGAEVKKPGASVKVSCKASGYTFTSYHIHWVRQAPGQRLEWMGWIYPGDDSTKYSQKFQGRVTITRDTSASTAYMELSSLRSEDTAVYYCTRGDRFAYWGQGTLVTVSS VL: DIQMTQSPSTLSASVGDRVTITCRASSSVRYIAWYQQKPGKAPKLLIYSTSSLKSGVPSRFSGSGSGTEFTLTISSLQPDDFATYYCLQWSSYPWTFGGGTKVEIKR	15000
mutated humanized 12G4 antibody 3C-23 produced in CHO (antibody, human IgG1, kappa, V domains shown, also called 3C_23 CHO) VH: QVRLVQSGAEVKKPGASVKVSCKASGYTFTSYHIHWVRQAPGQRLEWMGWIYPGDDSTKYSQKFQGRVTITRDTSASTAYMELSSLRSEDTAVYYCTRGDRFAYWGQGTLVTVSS VL: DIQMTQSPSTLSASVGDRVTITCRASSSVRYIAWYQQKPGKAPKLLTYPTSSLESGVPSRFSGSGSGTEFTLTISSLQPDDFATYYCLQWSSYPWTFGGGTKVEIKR	50000
mutated humanized 12G4 antibody 6B-78 produced in YB2/0 (antibody, human IgG1, kappa, V domains shown, Chains without leader; Mutation VL-E184K; also called 6B_78 YB2/0; R901 6B78) VH: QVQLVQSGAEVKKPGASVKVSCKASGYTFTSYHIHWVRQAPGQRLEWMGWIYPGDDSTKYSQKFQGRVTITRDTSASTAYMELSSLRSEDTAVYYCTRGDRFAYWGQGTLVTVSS VL: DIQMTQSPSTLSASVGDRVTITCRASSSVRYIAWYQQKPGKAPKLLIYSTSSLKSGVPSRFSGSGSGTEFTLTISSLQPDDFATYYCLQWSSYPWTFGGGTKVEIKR	16000

Then this binder:
Field kon (entry mutated humanized 12G4 antibody 3C-23K produced in YB2/0 (antibody, human IgG1, kappa, V domains shown, Chains without leader; also called 3C_23K YB2/0; 3C-23K-YB2/0) VH: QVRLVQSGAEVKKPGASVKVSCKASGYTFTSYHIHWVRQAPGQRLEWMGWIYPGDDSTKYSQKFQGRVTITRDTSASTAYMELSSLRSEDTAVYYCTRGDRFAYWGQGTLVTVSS VL: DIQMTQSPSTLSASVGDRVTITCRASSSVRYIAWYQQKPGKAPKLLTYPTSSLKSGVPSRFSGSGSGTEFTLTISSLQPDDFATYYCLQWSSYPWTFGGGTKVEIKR ) reads 40000
